Items are presented alongside their recorded MFI.
Target: CD28 (human) (UniProt P10747)
Assay: flow cytometry, cells expressing CD28
State just the number; it will be interpreted in MFI.

The following binders have reported results that may help.
binder | MFI (MFI)
variant CD80 A91G/F92L/F108L/I118V/T120S (Fc fusion) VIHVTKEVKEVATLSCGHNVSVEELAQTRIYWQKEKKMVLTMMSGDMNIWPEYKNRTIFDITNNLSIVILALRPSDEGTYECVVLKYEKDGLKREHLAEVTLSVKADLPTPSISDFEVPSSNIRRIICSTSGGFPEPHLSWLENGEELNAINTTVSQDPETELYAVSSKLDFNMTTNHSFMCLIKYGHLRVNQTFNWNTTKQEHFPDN | 50
variant CD80 K37E/F59S/L70Q/A91G/T120S/T130A (Fc fusion) VIHVTKEVKEVATLSCGHNVSVEELAQTRIYWQKEKEMVLTMMSGDMNIWPEYKNRTISDITNNLSIVIQALRPSDEGTYECVVLKYEKDGFKREHLAEVTLSVKADFPTPSISDFEIPSSNIRRIICSASGGFPEPHLSWLENGEELNAINTTVSQDPETELYAVSSKLDFNMTTNHSFMCLIKYGHLRVNQTFNWNTTKQEHFPDN | 20
variant CD80 V4M/L70Q/A91G/I118V/T120S/T130A/K169E (Fc fusion) VIHMTKEVKEVATLSCGHNVSVEELAQTRIYWQKEKKMVLTMMSGDMNIWPEYKNRTIFDITNNLSIVIQALRPSDEGTYECVVLKYEKDGFKREHLAEVTLSVKADFPTPSISDFEVPSSNIRRIICSASGGFPEPHLSWLENGEELNAINTTVSQDPETELYAVSSELDFNMTTNHSFMCLIKYGHLRVNQTFNWNTTKQEHFPDN | 89
variant CD80 R29V/M43Q/E81R/L85I/K89R/D90L/A91E/F92N/K93Q/R94G (Fc fusion) VIHVTKEVKEVATLSCGHNVSVEELAQTVIYWQKEKKMVLTMQSGDMNIWPEYKNRTIFDITNNLSIVILALRPSDEGTYRCVVIKYERLENQGEHLAEVTLSVKADFPTPSISDFEIPTSNIRRIICSTSGGFPEPHLSWLENGEELNAINTTVSQDPETELYAVSSKLDFNMTTNHSFMCLIKYGHLRVNQTFNWNTTKQEHFPDN | 1030
variant CD80 S44P/L70Q/A91G/T130A (Fc fusion) VIHVTKEVKEVATLSCGHNVSVEELAQTRIYWQKEKKMVLTMMPGDMNIWPEYKNRTIFDITNNLSIVIQALRPSDEGTYECVVLKYEKDGFKREHLAEVTLSVKADFPTPSISDFEIPTSNIRRIICSASGGFPEPHLSWLENGEELNAINTTVSQDPETELYAVSSKLDFNMTTNHSFMCLIKYGHLRVNQTFNWNTTKQEHFPDN | 88

Shift focus to the following entry.
Task item: MFI for variant CD80 I67F/L70R/E88G/A91G/I118V/T120S/T130A (Fc fusion) VIHVTKEVKEVATLSCGHNVSVEELAQTRIYWQKEKKMVLTMMSGDMNIWPEYKNRTIFDITNNLSFVIRALRPSDEGTYECVVLKYGKDGFKREHLAEVTLSVKADFPTPSISDFEVPSSNIRRIICSASGGFPEPHLSWLENGEELNAINTTVSQDPETELYAVSSKLDFNMTTNHSFMCLIKYGHLRVNQTFNWNTTKQEHFPDN ?
Reply: 5
